I'd be grateful if you could share measured binding signal for these entries.
Molecular target: GST-Nv-NF-kB (Cys allele) (Nematostella vectensis, UniProt E5G601 2-411)
Sequence: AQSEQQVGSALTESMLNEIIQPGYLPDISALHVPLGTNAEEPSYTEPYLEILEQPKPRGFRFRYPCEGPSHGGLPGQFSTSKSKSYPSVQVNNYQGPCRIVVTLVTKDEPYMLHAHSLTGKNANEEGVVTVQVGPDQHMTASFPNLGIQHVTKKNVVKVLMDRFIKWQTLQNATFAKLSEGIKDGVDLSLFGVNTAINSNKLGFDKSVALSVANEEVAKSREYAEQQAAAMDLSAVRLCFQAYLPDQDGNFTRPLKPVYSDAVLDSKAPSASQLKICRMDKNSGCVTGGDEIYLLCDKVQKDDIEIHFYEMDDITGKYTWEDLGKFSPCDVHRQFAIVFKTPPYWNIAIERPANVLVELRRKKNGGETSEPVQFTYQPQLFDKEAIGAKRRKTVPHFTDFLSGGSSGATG
Experiment: protein-binding microarray (PBM); PBM: ~300 nM protein, 6 mM HEPES pH 7.8, 80 mM KCl, 0.5 mM EDTA, 0.5 mM EGTA, 6% glycerol, 35 ng/ul poly-dIdC, 1% milk, 1 h, room temperature; high values mean tight binding
Details: dsDNA, one strand shown
Enter the number, and then the unit.

Record excerpt, results attached:
# residue codes, binding signal
records = [
    ("CCGATTAACATCAAATTTCCCCGTGATGTTAATCGGGTCTTGATTCGCTTGACGCTGCTG", "9.6 z-score"),
    ("CCGATTAACATCACAGTTCCCCCTGATGTTAATCGGGTCTTGATTCGCTTGACGCTGCTG", "6.16 z-score"),
    ("CCGATTAACATCAGGGACGTCCCTGATGTTAATCGGGTCTTGATTCGCTTGACGCTGCTG", "7.13 z-score"),
    ("CCGATTAACATCACGTATTTCCCTGATGTTAATCGGGTCTTGATTCGCTTGACGCTGCTG", "4.03 z-score"),
    ("CCGATTAACATCACGGGAGTCCCTGATGTTAATCGGGTCTTGATTCGCTTGACGCTGCTG", "3.94 z-score"),
]

Give measured binding signal for every item shown.
1. CCGATTAACATCATAAAATCCCATGATGTTAATCGGGTCTTGATTCGCTTGACGCTGCTG
2. CCGATTAACATCAAGTAACCCCCTGATGTTAATCGGGTCTTGATTCGCTTGACGCTGCTG
3. CCGATTAACATCAGGGGGTACAATGATGTTAATCGGGTCTTGATTCGCTTGACGCTGCTG

Reply:
1: 2.92 z-score; 2: 4.44 z-score; 3: 3.08 z-score

Query: What reported binding signal corresponds to `CCGATTAACATCAGGGACTTCACTGATGTTAATCGGGTCTTGATTCGCTTGACGCTGCTG` on GST-Nv-NF-kB (Cys allele) (Nematostella vectensis, UniProt E5G601 2-411)?
Reply: 4.27 z-score

* * *

Field: binding signal. Provide a value for each of the sequences that follow.
Target: GST-Hu-p50 (Homo sapiens, UniProt P19838 7-356)
Sequence (P19838 7-356): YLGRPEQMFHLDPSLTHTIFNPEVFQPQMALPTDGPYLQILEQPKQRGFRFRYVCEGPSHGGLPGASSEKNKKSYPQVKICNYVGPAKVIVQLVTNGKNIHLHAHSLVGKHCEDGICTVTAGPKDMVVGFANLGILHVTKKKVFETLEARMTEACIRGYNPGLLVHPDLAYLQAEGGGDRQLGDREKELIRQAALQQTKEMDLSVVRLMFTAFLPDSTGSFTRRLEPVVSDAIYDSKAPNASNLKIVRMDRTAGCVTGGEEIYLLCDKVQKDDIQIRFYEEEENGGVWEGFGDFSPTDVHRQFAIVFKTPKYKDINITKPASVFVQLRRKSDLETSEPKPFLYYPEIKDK
Test: protein-binding microarray (PBM); PBM: ~300 nM protein, 6 mM HEPES pH 7.8, 80 mM KCl, 0.5 mM EDTA, 0.5 mM EGTA, 6% glycerol, 35 ng/ul poly-dIdC, 1% milk, 1 h, room temperature; high values mean tight binding
Conditions: dsDNA, one strand shown
Give bare numbers, in z-score.

Example entries begin here.
# residue codes, numeric result
measured = [
    ("CCGATTAACATCAAAAATCCCCTTGATGTTAATCGGGTCTTGATTCGCTTGACGCTGCTG", 8.54),
    ("CCGATTAACATCAAGTTCCCCCATGATGTTAATCGGGTCTTGATTCGCTTGACGCTGCTG", 6.24),
]

Okay, now this sequence:
Query: Quick one: binding signal of `CCGATTAACATCACGGGGATCCCTGATGTTAATCGGGTCTTGATTCGCTTGACGCTGCTG` ?
Reply: 4.51

* * *

Biological target: GST-Co-NF-kB (Capsaspora owczarzaki, UniProt F1ARL5 200-546)
Sequence: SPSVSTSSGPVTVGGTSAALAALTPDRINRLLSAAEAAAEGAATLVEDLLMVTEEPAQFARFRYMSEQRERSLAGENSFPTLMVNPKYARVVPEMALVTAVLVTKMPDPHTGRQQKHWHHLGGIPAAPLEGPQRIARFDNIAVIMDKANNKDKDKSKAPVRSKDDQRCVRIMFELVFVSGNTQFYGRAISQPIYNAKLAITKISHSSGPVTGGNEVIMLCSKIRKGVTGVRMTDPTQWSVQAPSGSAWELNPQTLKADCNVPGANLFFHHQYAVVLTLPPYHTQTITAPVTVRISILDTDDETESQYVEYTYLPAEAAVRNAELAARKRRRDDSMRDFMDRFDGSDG
Test: protein-binding microarray (PBM); PBM: ~300 nM protein, 6 mM HEPES pH 7.8, 80 mM KCl, 0.5 mM EDTA, 0.5 mM EGTA, 6% glycerol, 35 ng/ul poly-dIdC, 1% milk, 1 h, room temperature; high values mean tight binding
Settings: dsDNA, one strand shown
Decision: binding signal beneath 4 z-score gives Y; binding signal meeting or exceeding 4 z-score gives N.

Query: Bench note: check whether `CCGATTAACATCATTTGGGAAAATGATGTTAATCGGGTCTTGATTCGCTTGACGCTGCTG` shows binding signal below 4 z-score
Reply: Y

Query: Could you please tell me whether binding signal recorded for `CCGATTAACATCAGGGGGATCACTGATGTTAATCGGGTCTTGATTCGCTTGACGCTGCTG` is less than 4 z-score?
Reply: N

Query: binding signal strictly < 4 z-score for this sequence? `CCGATTAACATCAGGGAAGTTTATGATGTTAATCGGGTCTTGATTCGCTTGACGCTGCTG`
Reply: Y

Query: I wonder whether `CCGATTAACATCAGGGGGTTTACTGATGTTAATCGGGTCTTGATTCGCTTGACGCTGCTG` has binding signal below 4 z-score. Can you tell?
Reply: Y

Query: Lab note: confirm whether the reported binding signal for this sequence is below 4 z-score, equality not counting. sequence: `CCGATTAACATCAAAAGGGGATATGATGTTAATCGGGTCTTGATTCGCTTGACGCTGCTG`
Reply: Y

Query: State whether 4 z-score exceeds binding signal recorded for `CCGATTAACATCAAAAGTTTCCCTGATGTTAATCGGGTCTTGATTCGCTTGACGCTGCTG` .
Reply: N

Query: Hi there! Is binding signal for `CCGATTAACATCATCCCCGTGTCTGATGTTAATCGGGTCTTGATTCGCTTGACGCTGCTG` below 4 z-score, do you know?
Reply: N

* * *

Target: GST-Ap-NF-kB RHD (Exaiptasia pallida (Aiptasia), UniProt A0A913YAJ5 2-422)
Sequence: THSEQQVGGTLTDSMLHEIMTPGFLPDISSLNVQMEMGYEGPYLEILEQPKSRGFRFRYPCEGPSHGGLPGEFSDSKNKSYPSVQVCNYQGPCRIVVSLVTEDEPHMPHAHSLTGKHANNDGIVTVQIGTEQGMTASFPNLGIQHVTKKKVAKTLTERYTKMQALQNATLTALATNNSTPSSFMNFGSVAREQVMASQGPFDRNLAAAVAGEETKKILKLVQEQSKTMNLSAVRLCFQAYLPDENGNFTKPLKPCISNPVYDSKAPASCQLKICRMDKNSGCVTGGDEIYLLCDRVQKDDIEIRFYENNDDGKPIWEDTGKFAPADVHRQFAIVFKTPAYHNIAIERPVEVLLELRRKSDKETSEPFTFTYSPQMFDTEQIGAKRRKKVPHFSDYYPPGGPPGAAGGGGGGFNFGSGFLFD
Experiment: protein-binding microarray (PBM); PBM: ~300 nM protein, 6 mM HEPES pH 7.8, 80 mM KCl, 0.5 mM EDTA, 0.5 mM EGTA, 6% glycerol, 35 ng/ul poly-dIdC, 1% milk, 1 h, room temperature; Ap Aiptasia and Nv Nematostella (sea anemones) / Co Capsaspora / Aq Amphimedon (sponge) / Dm Drosophila / Hu human; RHD is the Rel homology domain; high values mean tight binding
Conditions: dsDNA, one strand shown
measured parameter: binding signal (z-score)
Numbers only, in z-score.

# residue codes, binding signal [z-score]
rows = [
    ("CCGATTAACATCACGGGGAGTCCTGATGTTAATCGGGTCTTGATTCGCTTGACGCTGCTG", 7.06),
    ("CCGATTAACATCAGAAATACCCATGATGTTAATCGGGTCTTGATTCGCTTGACGCTGCTG", 4.24),
    ("CCGATTAACATCAGGCACTTCCCTGATGTTAATCGGGTCTTGATTCGCTTGACGCTGCTG", 1.15),
]

Please look at the following sequence next.
Query: What measured binding signal goes with `CCGATTAACATCAGGGGTCAGTATGATGTTAATCGGGTCTTGATTCGCTTGACGCTGCTG` ?
Reply: 1.23
